| cpd-smiles | melting point |
| --- | --- |
| O=C(Nc1ccccc1-c1ccccc1)c1cc([N+](=O)[O-])ccc1Cl | 154 °C |
| O=C(Nc1ccc(Oc2ncc(C(F)(F)F)cc2Cl)c(N2CCCC2)c1)c1cc([N+](=O)[O-])ccc1Cl | 235 to 237 °C |
| O=C(Nc1ccc(S(=O)(=O)Nc2ncccn2)cc1)c1cc([N+](=O)[O-])ccc1Cl | 252 to 258 °C |
| O=C(Nc1ccc(Oc2ncc(C(F)(F)F)cc2Cl)cc1)c1cc([N+](=O)[O-])ccc1Br | 191 to 195 °C |
| Cc1cc(NC(=O)c2cc([N+](=O)[O-])ccc2Cl)ccc1Nc1ncc(C(F)(F)F)cc1Cl | 189 to 192 °C |
| COc1ccc(NC(=O)c2cc([N+](=O)[O-])ccc2Cl)cc1 | 154 °C |
| O=C(Nc1ccc2c(c1)CCC2)c1cc([N+](=O)[O-])ccc1Cl | 225 to 229 °C |
| O=C(Nc1ccc(CCOc2ncc(C(F)(F)F)cc2Cl)cc1)c1cc([N+](=O)[O-])ccc1Cl | 131 to 134 °C |
| O=C(Nc1cccc(Oc2ccccc2)c1)c1cc([N+](=O)[O-])ccc1Cl | 103 °C |
| Cc1cc(Oc2ccc(C(F)(F)F)cc2)ccc1NC(=O)c1cc([N+](=O)[O-])ccc1Cl | 196 °C |
| O=C(Nc1ccc(Oc2ccc(C(F)(F)F)cc2Cl)cc1)c1cc([N+](=O)[O-])ccc1Cl | 168 °C |
| O=C(Nc1ccc(Sc2ccccc2)cc1)c1cc([N+](=O)[O-])ccc1Cl | 180 to 183 °C |
| O=C(Nc1ccc2ncsc2c1)c1cc([N+](=O)[O-])ccc1Cl | 242 to 244 °C |
| COC(=O)c1cc(NC(=O)c2cc([N+](=O)[O-])ccc2Cl)ccc1Oc1ncc(C(F)(F)F)cc1Cl | 226 to 229 °C |
| CN(C)c1cc(NC(=O)c2cc([N+](=O)[O-])ccc2Cl)ccc1Oc1ncc(C(F)(F)F)cc1Cl | 208 to 213 °C |
| O=C(Nc1ccc(Sc2ccc(C(F)(F)F)cn2)cc1)c1cc([N+](=O)[O-])ccc1Cl | 189 °C |
| Cc1cc(C23CC4CC(CC(C4)C2)C3)ccc1NC(=O)c1cccc(C(=O)O)c1 | 232 °C |
| O=C(Nc1ccc(Oc2ccc(C(F)(F)F)cn2)c(Cl)c1)c1ccc(F)cc1F | 145 to 147 °C |
| O=C(Nc1nc2ccccc2s1)c1cc([N+](=O)[O-])ccc1Cl | 221 to 227 °C |
| NC(=O)c1cc(NC(=O)c2cc([N+](=O)[O-])ccc2Cl)ccc1Oc1ncc(C(F)(F)F)cc1Cl | 239 to 244 °C |
| O=C(Nc1ccccc1Oc1ccccc1)c1cc([N+](=O)[O-])ccc1Cl | 110 °C |
| Nc1cc(NC(=O)c2cc([N+](=O)[O-])ccc2Cl)ccc1Oc1ncc(C(F)(F)F)cc1Cl | 235 to 237 °C |
| N#Cc1cc(NC(=O)c2cc([N+](=O)[O-])ccc2Cl)ccc1Oc1ncc(C(F)(F)F)cc1Cl | 194 to 198 °C |
| Cc1cc(C23CC4CC(CC(C4)C2)C3)ccc1NC(=O)c1cccc([N+](=O)[O-])c1 | 177 °C |
| Cc1cc(C23CC4CC(CC(C4)C2)C3)ccc1NC(=O)c1ccc(Cl)cc1Cl | 211 °C |
| N#Cc1ccc(Cl)c(C(=O)Nc2ccc(Sc3ncc(C(F)(F)F)cc3Cl)cc2)c1 | 229 to 231 °C |
| Cc1cc(C23CC4CC(CC(C4)C2)C3)ccc1NC(=O)c1cc(C#N)ccc1Cl | 184 to 187 °C |
| Cc1cc(-c2nc3ccccc3s2)ccc1NC(=O)c1cc([N+](=O)[O-])ccc1Cl | 220 to 226 °C |
| O=C(Nc1ccc(Oc2ccc(C(F)(F)F)cn2)c(Cl)c1)c1ccccc1F | 141 to 143 °C |
| COc1ccc([N+](=O)[O-])c(OC)c1C(=O)Nc1cc(Cl)cc(Cl)c1 | 173 °C |
| Cc1cc(C23CC4CC(CC(C4)C2)C3)ccc1NS(=O)(=O)c1cc([N+](=O)[O-])ccc1C | 241 °C |
| O=CNc1cccc(C(=O)Nc2ccc(Oc3ccc(C(F)(F)F)cn3)c(Cl)c2)c1O | 159 to 161 °C |

* * *

melting point values by entry

| cpd-smiles | melting point |
| --- | --- |
| O=C(Nc1ccc(OC23CC4CC(CC(C4)C2)C3)nc1)c1cc([N+](=O)[O-])ccc1Cl | 98 to 105 °C |
| O=C(Nc1ccc(Oc2ncc(C(F)(F)F)cc2Cl)c(N2CCCCC2)c1)c1cc([N+](=O)[O-])ccc1Cl | 194 to 198 °C |
| O=C(Nc1ccc(Oc2ccc(C(F)(F)F)cn2)c(Cl)c1)c1cccc(Cl)c1 | 160 to 161 °C |
| O=C(Nc1ccc(OCc2ncc(C(F)(F)F)cc2Cl)cc1)c1cc([N+](=O)[O-])ccc1Cl | 193 to 195 °C |
| O=C(Nc1ccc(Oc2ncc(C(F)(F)F)cc2Cl)c(Cl)c1)c1cc([N+](=O)[O-])ccc1Cl | 222 to 225 °C |
| Cc1cc(C23CC4CC(CC(C4)C2)C3)ccc1NS(=O)(=O)c1cc([N+](=O)[O-])ccc1Cl | 238 °C |
| Cc1cc(C23CC4CC(CC(C4)C2)C3)ccc1NC(=O)c1cc([N+](=O)[O-])ccc1O | 131 °C |

* * *

melting point values by entry

| cpd-smiles | unit-symbol | melting point |
| --- | --- | --- |
| Cc1cc(C23CC4CC(CC(C4)C2)C3)ccc1NC(=O)c1cccc(C#N)c1 | °C | 83 |
| Cc1cc(C23CC4CC(CC(C4)C2)C3)ccc1NC(=O)c1ccccc1Cl | °C | 154 |

* * *

melting point values by entry

| cpd-smiles | melting point |
| --- | --- |
| Cc1cc(C23CC4CC(CC(C4)C2)C3)ccc1NC(=O)c1ccc([N+](=O)[O-])cc1 | 289 to 290 °C |
| Cc1cc(C23CC4CC(CC(C4)C2)C3)ccc1NC(=O)c1ccc([N+](=O)[O-])cc1Cl | 200 °C |
| Cc1cc(Oc2ncc(C(F)(F)F)cc2Cl)c(C)cc1NC(=O)c1cc([N+](=O)[O-])ccc1Cl | 296 to 298 °C |
| O=C(Nc1ccc(CO)cc1)c1cc([N+](=O)[O-])ccc1Cl | 201 to 204 °C |
| Cc1cc(C23CC4CC(CC(C4)C2)C3)ccc1NC(=O)c1ccc(Cl)c([N+](=O)[O-])c1 | 111 °C |
| COc1ccc(C(=O)Nc2ccc(Oc3ccc(C(F)(F)F)cn3)c(Cl)c2)cc1OC | 152 to 154 °C |
| O=C(Nc1ccc(Oc2ccc(C(F)(F)F)cn2)c(Cl)c1)c1ccc(Oc2ccc(C(F)(F)F)cn2)c(Cl)c1 | 206 to 209 °C |
| Cc1cc(C23CC4CC(CC(C4)C2)C3)ccc1NC(=O)c1ccccc1 | 198 °C |

* * *

melting point values by entry
measured-metric: melting point

| molecule | recorded-value |
| --- | --- |
| O=C(Nc1ccc(CSc2ncc(C(F)(F)F)cc2Cl)cc1)c1cc([N+](=O)[O-])ccc1Cl | 207 to 208 °C |
| O=C(Nc1ccc(Oc2ccc(C(F)(F)F)cn2)c(Cl)c1)c1ccccc1 | 170 to 172 °C |
| Cc1cc(NC(=O)c2cc(C#N)ccc2Cl)ccc1Oc1ncc(C(F)(F)F)cc1Cl | 221 to 223 °C |
| Cc1ccc(NC(=O)c2ccc([N+](=O)[O-])cc2Cl)c(C)c1 | 181 to 183 °C |
| Cc1cc(NC(=O)c2cc([N+](=O)[O-])ccc2Br)ccc1Oc1ncc(C(F)(F)F)cc1Cl | 246 to 248 °C |
| N#Cc1ccc(Cl)c(C(=O)Nc2ccc(Oc3ncc(C(F)(F)F)cc3Cl)cc2)c1 | 209 to 212 °C |
| COc1cc(NC(=O)c2cc([N+](=O)[O-])ccc2Cl)ccc1Oc1ncc(C(F)(F)F)cc1Cl | 190 to 193 °C |
| O=C(Nc1ccc(-c2ccccc2)cc1)c1cc([N+](=O)[O-])ccc1Cl | 203 to 206 °C |
| Cc1ccc(S(=O)(=O)Nc2ccc(NC(=O)c3cc([N+](=O)[O-])ccc3Cl)cc2)cc1 | 165 to 172 °C |
| O=C(Nc1ccc(OCc2ccccc2)cc1)c1cc([N+](=O)[O-])ccc1Cl | 176 to 178 °C |
| O=C(Nc1ccc(Oc2ccc(C(F)(F)F)cn2)c(Cl)c1)c1ccc(C(F)(F)F)cc1 | 154 to 155 °C |
| O=C(Nc1ccc(C23CC4CC(CC(C4)C2)C3)cc1)c1cc([N+](=O)[O-])ccc1F | 224 to 228 °C |
| Cc1cc(C23CC4CC(CC(C4)C2)C3)ccc1NS(=O)(=O)c1cc(Cl)ccc1Cl | 200 °C |
| O=C(Nc1ccc(Oc2ncc(C(F)(F)F)cc2Cl)c(-n2cccc2)c1)c1cc([N+](=O)[O-])ccc1Cl | 165 to 167 °C |
| O=C(Nc1ccc(Nc2ncc(C(F)(F)F)cc2Cl)cc1)c1cc([N+](=O)[O-])ccc1Cl | 215 to 218 °C |
| O=C(Nc1ccc(OC2C3CC4CC(C3)CC2C4)cc1)c1cc([N+](=O)[O-])ccc1Cl (centres unmarked) | 178 to 180 °C |
| O=C(Nc1ccc(SCc2ccccc2)cc1)c1cc([N+](=O)[O-])ccc1Cl | 156 to 157 °C |
